- Tested on: Leishmania donovani
- METHOD: Leishmania intramacrophage assay
- Format: functional, organism-based
- Design: scale not given: in the data most compounds retested in dose-response had high values
- CONDITION SUMMARY: 30 µM; 30.03 µM
In all, about 69,000 compounds went through this assay and about 1,000 (1.4%) showed an effect of 50% or more. This is one part of a sample in which strong results are shown more often than they occur.
ATTRIBUTE MEASURED: Percent Effect (%)

COMPOUND | UNIT DESCRIPTOR | MEAS VALUE
CC(C)n1c(C2CCCN(Cc3ccnn3C)C2)nc2ccccc21 (configuration not stated) | % | 7.956
COCC(=O)N1CCCn2c(CN3CCCCC3)nnc2C1.O=C(O)C(F)(F)F | % | -9.377
Cc1ccccc1CC(=O)N(C)C1CCCC1 | % | -4.753
NCC(c1ccccc1)N1CCc2sccc2C1 (configuration not stated) | % | 28.55
CC(O)CN1CCN(C(=O)c2ccc3c(c2)COC3)CC1 (configuration not stated) | % | 9.428
O=C(c1ccncc1)N1CCC(c2nc(O)cc(-c3cccnc3)n2)C1 (configuration not stated) | % | -2.25
CCCc1nnsc1C(=O)NCC1CCN(c2ccccn2)CC1 | % | 33.4
COCCCn1ccnc1-c1cnc(OC)nc1 | % | 27.45
Cc1nn(C)c(N(C)C)c1CNCc1ccccc1Cn1cncn1 | % | 20.9
CN1CCOC(CN(C(=O)Cc2ccccc2F)c2nccs2)C1 (configuration not stated) | % | -6.347
CS(=O)(=O)CC(=O)N1C[C@@H]2COC[C@]2(c2nnc(C3CC3)o2)C1 | % | 6.501
c1cnn(CC2CCCN2Cc2nc(-c3ccoc3)no2)c1 (configuration not stated) | % | -37.38
CC(C)n1ccnc1C1CCN(C(=O)C2COc3ccccc3O2)CC1 (configuration not stated) | % | -2.599
O=C(O)C(F)(F)F.c1cnc(N2CCC3(COCc4cnc(-c5cccnc5)nc43)C2)nc1 (configuration not stated) | % | 17.52
CCN(CC)C(=O)c1ccn(COc2cc(C)cc(C)c2)n1 | % | 51.39
O=C(CCO)N1CCOC2(CCCN(C(=O)c3ccco3)C2)C1 (configuration not stated) | % | -4.275
COc1cccc(CN2CCCC3(CCN(C(=O)[C@H]4CCCO4)C3)C2)c1 (some centres not stated) | % | 29.96
CCn1cc(Br)c(C(=O)NCc2cccnc2)n1 | % | 0.8694
O=C(c1ccncc1)N1CCCn2c(CN3CCCCC3)nnc2C1 | % | -1.304
Cc1cnn(CC2CCCN2C(=O)c2cc(Cl)ccc2F)c1 (configuration not stated) | % | -5.128
CC(=O)NCCN1CCC(c2cccs2)CC1 | % | 14.89
Cn1cc(CN2CCC3(CC2)CC(c2ccncc2)C(=O)N3)cn1.O=C(O)C(F)(F)F.O=C(O)C(F)(F)F (configuration not stated) | % | 3.212
O=C(NC1CC1)[C@H]1C[C@@H]2CCN(CCc3ccccc3)C[C@H]2O1.O=C(O)C(F)(F)F | % | 7.043
Cc1cc(F)ccc1CN1CCC(O)(CN2CCCCC2)C1 (configuration not stated) | % | 37.89
CCn1ncnc1C(C)NC(=O)C1CCN(C(C)C)CC1 (configuration not stated) | % | 5.618
CCN(c1ccc(C(=O)NCCCN2CCOCC2)cc1)S(=O)(=O)CC | % | 0.6611
COc1cccc(CN2CCCC3(CCN(C(=O)c4ccco4)C3)C2)c1 (configuration not stated) | % | 53.43
CC(=O)c1cn(CCC(=O)N[C@H](C(=O)O)C(C)C)c2ccccc12 | % | 8.027
COc1ccc(C2CC(=O)Oc3cc(C)[nH]c(=O)c32)cc1 (configuration not stated) | % | -4.044
COc1ccccc1CNC(=O)N1CCCC(NS(C)(=O)=O)C1 (configuration not stated) | % | -10.5
Cc1nc(C)n(CC2CCCN(CCc3ccncc3)C2)n1 (configuration not stated) | % | 27.42
CNC(=O)N1CC[C@H]2N(C)CC[C@@]2(C(=O)Nc2ccccc2)CC1 | % | 11.56
CCOc1ccc(C(=O)NS(=O)(=O)c2cncc(Br)c2)cc1OC | % | 20.52
O=C(CN1CCOC(Cn2cccn2)C1)NCCc1ccc(F)cc1 (configuration not stated) | % | 1.853
CCS(=O)(=O)c1ccc(N2CCC(NC(C)=O)CC2)cc1 | % | -2.976
CC1CCN(CCNC(=O)c2cncnc2C(C)C)CC1 | % | 11.52
COc1ccc(NCc2nc(=O)n(CCC(C)C)[nH]2)cc1 | % | 11.21
CCC(C)NC(=O)Cc1c(C)nc2c(c1C)c(=O)[nH]n2C (configuration not stated) | % | -5.579
CC(C)(O)C1CCN(C(=O)Nc2nc(-c3ccccc3)ns2)CC1 | % | 46.85
CC1CN(CC(=O)Nc2cccnc2)CCN1c1nccs1 (configuration not stated) | % | 19.22
CCOc1ccc(CNCCCn2ccnc2)cc1Br | % | 80.37
CN(CCCC#N)C1CCCN(Cc2noc(C3CC3)n2)C1 (configuration not stated) | % | 35.66
CC(NC1CCN(CCS(C)(=O)=O)CC1)c1ccc(Cl)cc1 (configuration not stated) | % | 14.89
CC(C)c1cc(NC(=O)c2ccc(C(=O)NC(C)(C)C)cc2)[nH]n1 | % | 58.67
CCOCCn1nnc(C2(NC(=O)c3ccccc3)CCCC2)n1 | % | 1.124
Cc1oncc1C(=O)N1CCC2(CCN(Cc3ccccn3)C2=O)C1 (configuration not stated) | % | -19.39
CCS(=O)(=O)N1CCc2ccc(NC(=O)Nc3cccc(SC)c3)cc21 | % | 59.71

###

- Tested on: Leishmania donovani
- METHOD: Leishmania intramacrophage assay
- Format: functional, organism-based
- Design: scale not given: in the data most compounds retested in dose-response had high values
- CONDITION SUMMARY: 30.3 µM; […]
Screen size: about 69,000 compounds; about 1,000 (1.4%) showed an effect of 50% or more. The list comes from a sample in which strong results are over-represented; it also holds close analogues and randomly drawn compounds.

MOLECULE | TARGET OR TEST SYSTEM | Percent Effect [%]
CC(C)c1nc(CN(C)C(=O)c2cn3ccsc3n2)cs1 | Leishmania donovani | -3.628
CN(C)C(=O)c1cccnc1-c1ccc2c(c1)OCO2 | Leishmania donovani | 11.7
CCc1ccccc1NC(=O)NCc1nnc(SC)n1C | Leishmania donovani | 23.33
CCn1cc(-c2cc(-c3ccn(C)c3)nc(N)c2C#N)cc1C#N | Leishmania donovani | 62.07
COc1c(CC2CC(C(=O)O)=NO2)c(Br)c2c(c1OC)OCO2 (configuration not stated) | Leishmania donovani | 9.318
Clc1snnc1CN1CCN(c2nccs2)CC1 | Leishmania donovani | -11.24
Cc1ccc(N2CCCc3sc(C(=O)NCc4ccc(C)o4)nc32)nn1 | Leishmania donovani | 18.34
NC(CC1CCCC1)c1ccc(Oc2ccccc2)cc1 (configuration not stated) | Leishmania donovani | 99.72
COc1ncc(-c2cc(-c3ccn(C)c3)nc(N)c2C#N)cn1 | Leishmania donovani | 4.864
O=C1NC2(CCN(C(=O)c3ccnnc3)CC2)CC1c1ccccc1 (configuration not stated) | Leishmania donovani | 21.04
CCNc1ncc(-c2cc(-c3ccn(C)c3)nc(N)c2C#N)cn1 | Leishmania donovani | -7.222
COc1ccccc1NC(=O)NCc1nnc(SC)n1C | Leishmania donovani | 56.86

###

- System: Leishmania donovani
- METHOD: Leishmania intramacrophage assay
- Format: functional, organism-based
- Set-up: scale not given: in the data most compounds retested in dose-response had high values
- CONDITION SUMMARY: 30.3 µM; […]
The whole screen tested about 69,000 compounds, of which about 1,000 (1.4%) showed an effect of 50% or more. The sample as a whole holds a higher share of strong results than the screen did.
Property: Percent Effect; scope: individual compounds

COMPOUND | UNIT DESCRIPTOR | Percent Effect
CN(c1ccc(CNC(=O)c2ccc(O)nc2)cc1)C1CCCCC1 | % | 57.37
COc1ccc(C2CN(c3nc(C)cc(C)n3)CCN2C(C)=O)cc1 (stereo unspecified) | % | 30.74
CCSCc1cccc(NC2CCN(C)C2=O)c1 (stereo unspecified) | % | -1.156
Cc1ccc(C(=O)NCc2ccc(N(C)C)cc2)cn1 | % | 1.485
O=C1CC2(CCN(CC3CC3)CC2)CN1Cc1cc(F)cc(F)c1 | % | 59.82
CCc1ccccc1CN1CC[C@@]2(O)CCN(S(=O)(=O)N(C)C)C[C@H]2C1 | % | -14.75

###

- Test system: Leishmania donovani
- METHOD: Leishmania intramacrophage assay
- Assay type: functional, organism-based
- Set-up: scale not given: in the data most compounds retested in dose-response had high values
- CONDITION SUMMARY: 30.3 µM; […]
Out of some 69,000 compounds screened, about 1,000 (1.4%) showed an effect of 50% or more. Only a selection was taken, and strong results are over-represented in it overall.

COMPOUND | TARGET OR TEST SYSTEM | Percent Effect [%]
Cc1nn(C)c2nc(N3CCC(C(O)Cc4ccccc4)CC3)sc12 (configuration not stated) | Leishmania donovani | 58.21
COc1ccc2[nH]c3c(c2c1)CN(c1cc(NCCO)nc(N)n1)CC3 | Leishmania donovani | 13.82
CC(C)Cc1ncc2c(n1)CN(c1cc(NCCO)nc(N)n1)C2 | Leishmania donovani | 22.17
Nc1nc(NCCO)cc(N2CCc3c([nH]c4ccccc34)C2)n1 | Leishmania donovani | 50.32
CC(C)CNC(=O)c1ccc(NC(=O)NC(C)C)cc1Cl | Leishmania donovani | -0.4257
Cn1cc(CN2CC[C@H]3O[C@@H](COCc4cccnc4)CC[C@H]32)cn1.O=C(O)C(F)(F)F.O=C(O)C(F)(F)F | Leishmania donovani | 18.07
O=C(c1ccc(F)c(F)c1)N1CCCCC1c1nc[nH]n1 (configuration not stated) | Leishmania donovani | -8.926
CNc1cc(-c2ccc(COCCN)cc2)c2cc[nH]c2n1 | Leishmania donovani | -14.52
N[C@@H]1CCN(Cc2cc(-c3ccccc3OC(F)(F)F)no2)C[C@H]1O | Leishmania donovani | 12.53
CC(C)c1nccc(C2(c3ccccc3Cl)CCNCC2)n1 | Leishmania donovani | 86.79
COc1cccc(CN(C)C(C)c2ccco2)c1OCCn1ccnc1 (configuration not stated) | Leishmania donovani | 23.12
Cc1nc(C2CCCNC2)nc2c1CCCN2Cc1ccccn1.Cl.Cl (configuration not stated) | Leishmania donovani | 30.18
CN1CSC[C@H]1C(=O)N1CCN(Cc2cccc(F)c2)CC1 | Leishmania donovani | 4.358
CC1(C)CN(C(CNS(N)(=O)=O)c2ccc(Cl)cc2)CCO1 (configuration not stated) | Leishmania donovani | -5.286
Cc1nc(CN2CCC3(C2)CN(Cc2ccco2)C3)cs1 | Leishmania donovani | 58.57
O=C(c1ccoc1)N1CCCCC1c1nc[nH]n1 (configuration not stated) | Leishmania donovani | 24.92
Cc1nn(C)c2nc(N3CCN(Cc4nccn4C)CC3)sc12 | Leishmania donovani | 15.9
O=C(Cc1ccsc1)N1CCc2ccc(=O)n(CC3CC3)c2CC1 | Leishmania donovani | 10.53
Cc1ccc(N2CCC(C(O)Cc3ccccc3)CC2)nn1 (configuration not stated) | Leishmania donovani | 17.05
CC(CNC1CCN(Cc2ccncc2)CC1)c1ccc(F)cc1F (configuration not stated) | Leishmania donovani | 10.91
Cc1nc(CN2CCC23CCN(Cc2ccoc2)CC3)cs1 | Leishmania donovani | 63.43
Cc1cc(COC(=O)[C@@H]2Cc3ccccc3CN2S(C)(=O)=O)no1 | Leishmania donovani | 12.34
Fc1ccc(CNC2CCN(CCc3ccncc3)CC2)cc1F | Leishmania donovani | 73.28
CNc1cc(-c2cccc(CN)c2)c2cc[nH]c2n1 | Leishmania donovani | 52.08
COc1cccc(NC(=O)CNc2ccc(C(=O)N(C)C)c(Cl)c2)c1 | Leishmania donovani | 28.32
COc1cccc(CNC(=O)c2cccnc2N)c1 | Leishmania donovani | 50.32
CC(C)(C)c1nccc(C2(c3ccccc3Cl)CCNCC2)n1 | Leishmania donovani | 98.02
CC(=O)NCc1nc(CCOc2ccc(Cl)cc2)no1 | Leishmania donovani | 7.139
CNS(=O)(=O)CC(=O)N1CCC(c2ccc(F)c(F)c2)CC1 | Leishmania donovani | 9.155
Cc1nc(N)sc1C(=O)N1CCC(C(O)Cc2ccccc2)CC1 (configuration not stated) | Leishmania donovani | 8.209
Cc1nn(C)c2nc(N3CCC(C(O)c4nccn4C)CC3)sc12 (configuration not stated) | Leishmania donovani | -0.9674
Cc1nc2cc(C(=O)N(CCC#N)CC3CCCO3)ccc2[nH]1 (configuration not stated) | Leishmania donovani | 5.976
Cc1nn(C)c2nc(N3CCC(C(O)c4ccccn4)CC3)sc12 (configuration not stated) | Leishmania donovani | 50.06
NC1CCCCN(Cc2cc(-c3ccccc3OC(F)(F)F)no2)C1 (configuration not stated) | Leishmania donovani | 99.07
O=c1cc(N2CCc3ccccc3C2)cnn1CCC1CCOC1 (configuration not stated) | Leishmania donovani | 44.37
O=C(NCc1cccs1)C1CNCC12CCOCC2.O=C(O)C(F)(F)F (configuration not stated) | Leishmania donovani | 12.59
COCCn1c2c(ccc1=O)CCN(C(=O)Cc1cccs1)CC2 | Leishmania donovani | 20.34
CCC1C(=O)NCCN1c1ccnc(C(C)(C)C)n1 (configuration not stated) | Leishmania donovani | -23.65
Cc1c[nH]c(CN2CCC3(CCCN(Cc4ccc(F)c(F)c4)C3)C2)n1 (configuration not stated) | Leishmania donovani | 53.74
O=c1[nH]cccc1-c1nccc(C2(c3ccccc3Cl)CCNCC2)n1 | Leishmania donovani | 3.768
Cc1nc(CN2CCC3(C2)CN(C(=O)c2ccc[nH]2)C3)cs1 | Leishmania donovani | 35.81
CNc1cc(-c2ccccc2CN)c2cc[nH]c2n1 | Leishmania donovani | 31.34
Cc1cc(NC2CCN(Cc3ccccn3)CC2)n2nc(C)c(C)c2n1 | Leishmania donovani | 27.06
O=C(C1CCCOC1)N1CCN(CC(F)(F)F)c2ccccc21 (configuration not stated) | Leishmania donovani | -20.84
Cc1nc(CN2CCC23CCN(C(=O)c2ccco2)CC3)cs1 | Leishmania donovani | 26.24
CCCN1CCCC(O)(c2nc(C)c(COc3ccccc3)s2)CC1 (configuration not stated) | Leishmania donovani | -5.482
Fc1ccc(CN2CCCC3(CCN(Cc4ncc[nH]4)C3)C2)cc1F (configuration not stated) | Leishmania donovani | 24.4
